Source: the MegaScale stability set (Tsuboyama et al. 2023)

Can you tell me folding stability dG for the items I'm about to list?
B1: EEHEE_rd4_0003 (parent)
chain: KKVTINGVEIKFNNPEEAVKFALELAKRLNLRIEFHGDQIKIE

- Variants of: B1
- measurement.notes: folding stability dG (cDNA display proteolysis); higher = more stable
- details: PBS, room temperature

Data point: I10M ; folding stability dG = 2.36 kcal/mol

Data point: L29H ; folding stability dG = 2.21 kcal/mol

Data point: E16Q ; folding stability dG = 2.6 kcal/mol

Data point: E17M ; folding stability dG = 2.49 kcal/mol

Data point: N6Y ; folding stability dG = 2.75 kcal/mol

Data point: N13I ; folding stability dG = 2.59 kcal/mol

Data point: A26C ; folding stability dG = 2.98 kcal/mol

Data point: G37W ; folding stability dG = 2.44 kcal/mol

Data point: K11C ; folding stability dG = 3.94 kcal/mol

Data point: I33P ; folding stability dG = 1.29 kcal/mol

Data point: L23P ; folding stability dG = 0.007 kcal/mol

Data point: L29G ; folding stability dG = 1.88 kcal/mol

Data point: H36G ; folding stability dG = 2.28 kcal/mol

Data point: K1E ; folding stability dG = 2.09 kcal/mol

Data point: G37C ; folding stability dG = 2.68 kcal/mol

Data point: E24C ; folding stability dG = 4.19 kcal/mol

Data point: G37T ; folding stability dG = 2.26 kcal/mol

Data point: A22Y ; folding stability dG = 2.39 kcal/mol

Data point: A26V ; folding stability dG = 2.26 kcal/mol

Data point: V3R ; folding stability dG = 1.95 kcal/mol

Data point: N30E ; folding stability dG = 1.86 kcal/mol

Data point: K11N ; folding stability dG = 2.83 kcal/mol
